The reported numbers originate from patent US5494932A.

Test system: HSV 2
Protocol summary: Plaque reduction assay, HSV 2
Type: cell-based
Study conditions: 100 μg/ml; first count
Metric: Plaque counts

For orientation, consider the following solved cases.
Molecule: CC(=O)Nc1ccc(C=Cc2ccc(N=C=S)cc2S(=O)(=O)O)c(S(=O)(=O)O)c1 [SITS]
Metric: Plaque counts
Result: 16

Molecule: O=S(=O)(O)c1cc(N=C=S)ccc1C=Cc1ccc(N=C=S)cc1S(=O)(=O)O [DIDS]
Metric: Plaque counts
Result: 0

Molecule: Nc1nc2c(ncn2COCCO)c(=O)[nH]1 [Acyclovir, reference compound]
Metric: Plaque counts
Result: 0

Now for the molecule whose Plaque counts we want.
For record O=S(=O)(O)c1cc(N=C=S)ccc1CCc1ccc(N=C=S)cc1S(=O)(=O)O [H2 DIDS] the listed Plaque counts is 0

* * *

Tested on: HSV 2
Protocol summary: Plaque reduction assay, HSV 2
Type: cell-based
Study conditions: 1 μg/ml; second count
Protocol: Protocol: Plaque reduction assay. Treatment after adsorption during incubation.
Metric: Plaque counts
Respond using a number only.

Compound: O=S(=O)(O)c1cc(N=C=S)ccc1CCc1ccc(N=C=S)cc1S(=O)(=O)O
Metric: Plaque counts
Quantitative readout: 31
--
Compound: Nc1nc2c(ncn2COCCO)c(=O)[nH]1 [Acyclovir, reference compound]
Metric: Plaque counts
Quantitative readout: 31
--
Compound: O=S(=O)(O)c1cc(N=C=S)ccc1C=Cc1ccc(N=C=S)cc1S(=O)(=O)O
Metric: Plaque counts
Quantitative readout: 33

GET /value?item= `CC(=O)Nc1ccc(C=Cc2ccc(N=C=S)cc2S(=O)(=O)O)c(S(=O)(=O)O)c1` &field=Plaque counts returns 25

* * *

System: HSV 2
Protocol summary: Plaque reduction assay, HSV 2
Type: cell-based
Study conditions: 100 μg/ml; second count
The reader will find reported Plaque counts values listed item by item below.

Record excerpt, results attached:
Molecule: Nc1nc2c(ncn2COCCO)c(=O)[nH]1 [Acyclovir, reference compound]
Plaque counts: 0
//
Molecule: O=S(=O)(O)c1cc(N=C=S)ccc1C=Cc1ccc(N=C=S)cc1S(=O)(=O)O
Plaque counts: 0

Consider `O=S(=O)(O)c1cc(N=C=S)ccc1CCc1ccc(N=C=S)cc1S(=O)(=O)O` . Its measured Plaque counts is 0

Briefly, Plaque counts measured for `CC(=O)Nc1ccc(C=Cc2ccc(N=C=S)cc2S(=O)(=O)O)c(S(=O)(=O)O)c1` : 13

* * *

System: HSV 2
Protocol summary: Plaque reduction assay, HSV 2
Assay type: cell-based
Study conditions: 10 μg/ml; first count
Measured Plaque counts of individual entries
Format: numeric value only, no unit, no commentary.

Consider the following illustrative entries.
Molecule: Nc1nc2c(ncn2COCCO)c(=O)[nH]1 [Acyclovir, reference compound]
Quantitative readout: 0
//
Molecule: O=S(=O)(O)c1cc(N=C=S)ccc1CCc1ccc(N=C=S)cc1S(=O)(=O)O
Quantitative readout: 26
//
Molecule: CC(=O)Nc1ccc(C=Cc2ccc(N=C=S)cc2S(=O)(=O)O)c(S(=O)(=O)O)c1
Quantitative readout: 25

Then this molecule:
Plaque counts measured on `O=S(=O)(O)c1cc(N=C=S)ccc1C=Cc1ccc(N=C=S)cc1S(=O)(=O)O` = 25

* * *

Some molecules, each annotated with its measured Plaque counts.
System: HSV 2
Protocol summary: Plaque reduction assay, HSV 2
Format: cell-based
Study conditions: 1 μg/ml; first count
The answer should be a number; do not append a unit.

# example entries with known answers
Molecule: CC(=O)Nc1ccc(C=Cc2ccc(N=C=S)cc2S(=O)(=O)O)c(S(=O)(=O)O)c1 [SITS]
Metric: Plaque counts
Quantitative readout: 28
//
Molecule: O=S(=O)(O)c1cc(N=C=S)ccc1CCc1ccc(N=C=S)cc1S(=O)(=O)O [H2 DIDS]
Metric: Plaque counts
Quantitative readout: 23
//
Molecule: O=S(=O)(O)c1cc(N=C=S)ccc1C=Cc1ccc(N=C=S)cc1S(=O)(=O)O [DIDS]
Metric: Plaque counts
Quantitative readout: 31

Continue with the next molecule.
Form: molecule = Nc1nc2c(ncn2COCCO)c(=O)[nH]1 [Acyclovir, reference compound] ; Plaque counts = 31
